Data provenance is patent US4958010A.

# IC50 HCT/VP35 annotations
Test system: HCT/VP35
Method Description: in vitro cytotoxicity assay, HCT/VP35 human colon tumor resistant to etoposide
Format: cell-based
Stated Conditions: etoposide-resistant line; concentration required to inhibit cell growth by 50%, four-fold serial dilution; replicate determinations on separate lines
Measurement Label: IC50 HCT/VP35 (µg/mL)

1) COc1cc([C@@H]2c3cc4c(cc3[C@@H](O[C@@H]3O[C@@H]5CO[C@@H](C)O[C@H]5[C@H](O)[C@H]3O)[C@H]3CN(N=C(C)C)C(=O)[C@H]23)OCO4)cc(OC)c1O (relative stereo) ... 96.26
2) COc1cc([C@@H]2c3cc4c(cc3[C@@H](O[C@@H]3O[C@@H]5CO[C@@H](C)O[C@H]5[C@H](O)[C@H]3O)[C@H]3CN(N=Cc5ccccc5)C(=O)[C@H]23)OCO4)cc(OC)c1O ... 42.37
3) CCCCCCCC(=O)Oc1c(OC)cc([C@@H]2c3cc4c(cc3[C@@H](O[C@@H]3O[C@@H]5CO[C@@H](C)O[C@H]5[C@H](O)[C@H]3O)[C@H]3CN(N=Cc5ccccc5)C(=O)[C@H]23)OCO4)cc1OC ... 13.50
4) CCCCCCCC(=O)Oc1c(OC)cc([C@@H]2c3cc4c(cc3[C@@H](O[C@@H]3O[C@@H]5CO[C@@H](C)O[C@H]5[C@H](O)[C@H]3O)[C@H]3CNC(=O)[C@H]23)OCO4)cc1OC ... 25.22
5) COc1cc([C@@H]2c3cc4c(cc3[C@@H](O[C@@H]3O[C@@H]5CO[C@@H](C)O[C@H]5[C@H](O)[C@H]3O)[C@H]3CNC(=O)[C@H]23)OCO4)cc(OC)c1O ... 111.78
